pKd for assorted binders
Biological target: T1, Human GPA33 (recombinant protein, Novoprotein) (human, UniProt Q99795 22-235)
T1 construct: Bought recombinant protein immobilized on a CM5 chip; also called GPA33 antigen; tumor antigen GPA33
T1 sequence: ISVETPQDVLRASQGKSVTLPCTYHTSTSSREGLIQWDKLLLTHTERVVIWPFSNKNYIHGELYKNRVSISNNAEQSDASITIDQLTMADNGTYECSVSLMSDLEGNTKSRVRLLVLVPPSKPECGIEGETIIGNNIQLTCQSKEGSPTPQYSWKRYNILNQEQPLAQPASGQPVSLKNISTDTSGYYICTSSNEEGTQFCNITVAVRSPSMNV
Assay: SPR (Biacore), binding to GPA33 protein; IgG format
Give only the number. pKd is defined as minus log10 of concentration in molar units.

Some binders with known pKd results, for comparison:
G3A_VK7+VH1 (antibody, V domains shown) VH: EVQLVESGGGLVKPGGSLRLSCAASGFAFSTYDMSWVRQAPGKGLEWVSTISSGGSYTYYADSVKGRFTISRDNAKNSLYLQMNSLRAEDTAVYYCAPTTVVPFAYWGQGTLVTVSA VL: DIQMTQSPSSLSASVGDRVTITCKASQNVRTVVAWYQQKPGKAPKRLIYLASNRHTGVPSRFSGSGSGTEFTLTISNVQPEDFATYYCLQHWSYPLTFGSGTKLEVK | 9.05
G3A_VK6+VH3 (antibody, V domains shown) VH: EVQLVESGGGLVKPGGSLRLSCAASGFAFSTYDMSWVRQAPGKGLEWVATISSGGSYTYYADSVKGRFTISRDSAKNSLYLQMNSLRAEDTAVYYCAPTTVVPFAYWGQGTLVTVSA VL: DIQMTQSPSSLSASVGDRVTITCKASQNVRTVVAWYQQKPGKAPKRLIYLASNRHTGVPSRFSGSGSGTEFTLTISNLQPEDFATYFCLQHWSYPLTFGSGTKLEVK | 8.84
G3A_VK5+VH1 (antibody, V domains shown) VH: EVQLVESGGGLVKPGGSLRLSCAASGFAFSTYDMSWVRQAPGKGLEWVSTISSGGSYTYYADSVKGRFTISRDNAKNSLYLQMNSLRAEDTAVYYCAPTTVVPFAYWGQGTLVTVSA VL: DIQMTQSPSSLSASVGDRVTITCKASQNVRTVVAWYQQKPGKAPKTLIYLASNRHTGVPSRFSGSGSGTEFTLTISNLQPEDFATYYCLQHWSYPLTFGSGTKLEVK | 9.77
G3A_VK7+VH3 (antibody, V domains shown) VH: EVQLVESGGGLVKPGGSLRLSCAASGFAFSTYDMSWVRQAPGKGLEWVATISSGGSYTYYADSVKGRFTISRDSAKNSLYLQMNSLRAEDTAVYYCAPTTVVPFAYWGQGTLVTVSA VL: DIQMTQSPSSLSASVGDRVTITCKASQNVRTVVAWYQQKPGKAPKRLIYLASNRHTGVPSRFSGSGSGTEFTLTISNVQPEDFATYYCLQHWSYPLTFGSGTKLEVK | 8.79
G3A_VK6+VH1 (antibody, V domains shown) VH: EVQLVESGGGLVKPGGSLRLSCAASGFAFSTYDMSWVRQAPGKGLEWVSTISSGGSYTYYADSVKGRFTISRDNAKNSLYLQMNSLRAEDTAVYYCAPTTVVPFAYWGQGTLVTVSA VL: DIQMTQSPSSLSASVGDRVTITCKASQNVRTVVAWYQQKPGKAPKRLIYLASNRHTGVPSRFSGSGSGTEFTLTISNLQPEDFATYFCLQHWSYPLTFGSGTKLEVK | 9.05

Now consider the entry below.
Q. Supply pKd value. Item: G3A_VK6+VH2 (antibody, V domains shown) VH: EVQLVESGGGLVKPGGSLRLSCAASGFAFSTYDMSWVRQAPGKGLEWVATISSGGSYTYYLDSVKGRFTISRDSAKNSLYLQMNSLRAEDTAVYYCAPTTVVPFAYWGQGTLVTVSA VL: DIQMTQSPSSLSASVGDRVTITCKASQNVRTVVAWYQQKPGKAPKRLIYLASNRHTGVPSRFSGSGSGTEFTLTISNLQPEDFATYFCLQHWSYPLTFGSGTKLEVK
A. 8.76
